Measured values drawn from the supplement of paper PMC10567573 for this set.

// reported protein stability index for each item listed
B1: KRT13 (parent)
chain: TSSASVTTTSNASGRRTSDVRRP

- Variants of: B1
- test.summary: protein stability index of a GFP-peptide fusion (GPS, HEK-293T) (PSI 1-6); higher = more stable;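 further: lentivirally expressed fusions sorted by FACS into six bins by GFP to DsRed ratio, PSI derived from sequencing read proportions per bin multiplied by bin number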
- condition.description: c terminus: native

variant.annotation | protein stability index
R15F | 1.88
G14S | 3.57
D19N | 2.26
R22T | 1.84
S3A | 2.61
A4S | 1.03
T7L | 2.23
T1V | 2.42
T17I | 3.61
N11K | 1.86
G14Y | 2.32
R22Y | 1.75
G14E | 2.97
G14L | 3.71
S10Y | 1.98
T7Y | 4.47
